Target: T1, Rat Semaphorin3A-Sema Domain, TPP-19120 (rat, UniProt Q63548 21-569)
T1 construct: produced inhouse
T1 sequence: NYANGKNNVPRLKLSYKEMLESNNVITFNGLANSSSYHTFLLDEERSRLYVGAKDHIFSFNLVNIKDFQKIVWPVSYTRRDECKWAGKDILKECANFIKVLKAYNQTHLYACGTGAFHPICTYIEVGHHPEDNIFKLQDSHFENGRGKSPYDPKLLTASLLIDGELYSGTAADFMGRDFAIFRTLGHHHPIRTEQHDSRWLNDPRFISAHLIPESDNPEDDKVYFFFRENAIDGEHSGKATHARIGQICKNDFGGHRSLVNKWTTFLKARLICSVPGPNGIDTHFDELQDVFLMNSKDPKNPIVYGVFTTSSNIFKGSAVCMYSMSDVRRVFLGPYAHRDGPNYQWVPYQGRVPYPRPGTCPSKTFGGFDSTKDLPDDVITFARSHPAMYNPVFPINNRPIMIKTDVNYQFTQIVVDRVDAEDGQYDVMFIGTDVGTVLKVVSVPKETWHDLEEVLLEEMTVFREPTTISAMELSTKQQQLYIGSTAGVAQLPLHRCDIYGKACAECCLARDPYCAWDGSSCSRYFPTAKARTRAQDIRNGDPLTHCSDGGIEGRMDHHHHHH
Test: SPR, captured antibody, Sema3A domain analyte
pKd: −log10 of the molar value.

| binder | pKd |
| --- | --- |
| TPP-30790 (antibody, human IgG1, kappa, V domains shown, prior art, WO 2020/225400; also called BI clone III; Böhringer (BI) Clone III) VH: EVQLVESGGGLVQLGGSLRLSCAASGFTFSSYYMSWVRQAPGKGLEWVSTIIKSGGYAYYPDSVKDRFTISRDNSKNTLYLQMNSLRAEDTAVYYCVKGGQGAMDYWGQGTTVTVSS VL: EIVLTQSPATLSLSPGERATLSCRASQSIGDYLHWYQQKPGQAPRLLIYYASQSISGIPARFSGSGSGTDFTLTISSLEPEDFAVYYCQQGYSFPYTFGGGTKLEIKR | 10.66 |
| TPP-15374 (antibody, human IgG1, lambda, V domains shown, human IgG1; also called IgG1, hit from panning; parental mAb) VH: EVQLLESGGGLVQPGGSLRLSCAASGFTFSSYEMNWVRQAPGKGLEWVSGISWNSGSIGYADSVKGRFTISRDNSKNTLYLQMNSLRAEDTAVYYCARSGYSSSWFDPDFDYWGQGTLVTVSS VL: QSVLTQPPSASGTPGQRVTISCTGSSSNIGAGYDVHWYQQLPGTAPKLLIYGNSNRPSGVPDRFSGSKSGTSASLAISGLRSEDEADYYCSSYAGSNPYVVFGGGTKLTVLG | 8.01 |
| TPP-30791 (antibody, human IgG1, kappa, V domains shown, prior art, WO 2020/225400; also called BI clone IV; Böhringer (BI) Clone IV) VH: EVQLVESGGGLLQLGGSLRLSCAASGFTFSSYYMSWVRQAPGKGLEWVSTIIKSGGYAYYPDSVKDRFTISRDNSKNTLNLQMNSLRAEDTAVYYCVKGGQGAMDYWGQGTTVTVSS VL: EIVLTQSPATLSLSPGERATLSCRASQSIGDYLHWYQQKPGQAPRLLIKYASQSISGIPARFSGSGSGTDFTLTISSLEPEDFAVYYCQQGYSFPYTFGGGTKLEIKR | 10.77 |
| TPP-30788 (antibody, human IgG1, kappa, V domains shown, prior art, WO 2020/225400; also called BI clone I; Böhringer (BI) Clone I) VH: EVQLVESGGGLVQPGGSLRLSCAASGFTFSSYYMSWVRQAPGKGLEWVSTIIKSGGYAYYPDSVKDRFTISRDNSKNTLYLQMSSLRAEDTAVYYCVRGGQGAMDYWGQGTTVTVSS VL: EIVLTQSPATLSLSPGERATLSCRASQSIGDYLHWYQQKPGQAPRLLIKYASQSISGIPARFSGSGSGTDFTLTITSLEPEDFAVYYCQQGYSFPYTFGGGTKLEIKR | 10.59 |

Origin of values: patent US20240254222A1
